- ASSAY TARGET: T1, HLA-DR7 molecule (DRB1*0701) (human)
- T1 construct: HLA class II heterodimer
- ASSAY NOTES: competitive ELISA, tracer YKL
pIC50: −log10 of the molar value.
Assign Yes whenever pIC50 does not fall below 5; assign No whenever it does.

Ask: Is pIC50 for GEFLKLDRERAKNKI (synthetic 15-mer) [survivin peptide 99-113] at or above 5?
Result: Yes

Ask: Determine whether measured pIC50 meets or exceeds 5 for ISTFKNWPFLEGCAC (synthetic 15-mer) [survivin peptide 19-33]
Result: Yes

Ask: pIC50 >= 5 for AGFIHCPTENEPDLA (synthetic 15-mer) [survivin peptide 41-55] ?
Result: Yes

Ask: Reported pIC50 at or above 5? LKLDRERAKNKIAKE (synthetic 15-mer) [survivin peptide 102-116]
Result: No

// data source = patent US20090004214A1
